Test system: HaCaT
assay.explanation: Antiproliferative activity against human HaCaT cells assessed as inhibition of cell proliferation
Format: cell-based
# key: entry, value: IC50
Give your result in µM as a bare value.

Example cases with answers are listed next.
COc1cc(-c2cc(C(=O)O)c3ccccc3n2)ccc1OCC(=O)Nc1ccccc1Cl
210
COc1cc(-c2cc(C(=O)O)c3ccccc3n2)ccc1OCC(=O)Nc1ccccc1C(F)(F)F
102
COc1cc(-c2cc(C(=O)O)c3ccccc3n2)ccc1OCC(=O)Nc1ccccc1F
161
COc1cc(-c2cc(C(=O)O)c3ccccc3n2)ccc1OCC(=O)Nc1ccc(C(F)(F)F)cc1
150
COc1cc(-c2cc(C(=O)O)c3ccccc3n2)ccc1OCC(=O)Nc1ccccc1C
230

Reported IC50 for COc1cc(-c2cc(C(=O)O)c3ccccc3n2)ccc1OCC(=O)Nc1ccc(F)cc1 was 286
